Values compiled from the supplement of paper PMC9170038.

Give measured apparent KD of MS2 coat protein for each item. Keep answers brief.
system: MS2 coat protein; assay: apparent KD of MS2 coat protein; designed switch direction (-1 OFF switch, 1 ON switch): -1; higher = weaker reporter binding; conditions: input ligand: none
Lab book: enter the figure in nM, no units written.

Provide the documented apparent KD of MS2 coat protein with MS2 coat protein as the system for ACCUCUGAGGAGGAUAUACAGUGCGAAAGGACAGUAGAAGGCUUCACAUGAGGAUCACCCAUGUCGAAUAGUGA [EX6 #79] (Eterna round: R97, puzzle: Exclusion 6)
58.7

Query apparent KD of MS2 coat protein on MS2 coat protein for GAUCAUGCAGGAUAUACAGUUUCCAUGAAAACAUGGAACUCACAUGAGGAUCACCCAUGUAGAAGGGCAUGAUC [Omei Ex2 A26] (Eterna round: R97, puzzle: Exclusion 2)
16.2

# query: apparent KD of MS2 coat protein | item CAAACCAGAGGAUAUGCGCAUAGAUCAGACUUUGUUUCUUAACAUGAGGAUCACCCAUGUAGAAGGCUGUAAAA [Ex2 #73] (Eterna round: R97, puzzle: Exclusion 2) | system: MS2 coat protein
17.6

Requested read-out apparent KD of MS2 coat protein, target or system MS2 coat protein, entry UUAAAUCAUGUAGGAUAUGCGUGGCGAAGCUAUGCAGAAGGACAUGAGGAUCACCCAUGUUCUUGCGUCUGCGUACAGAUGCGG [Exclusion NG 1] (Eterna round: R96, puzzle: Exclusion NG 1)
25.9

For MS2 coat protein, provide apparent KD of MS2 coat protein of UUAGCGUAAGUAAGGAUAUGCUGGUCGAAAGACCAGCAGAAGGUACAUGAGGAUCACCCAUGUUGAUUCGUUGC [Mod of JL 13 - Jieux - Brourd's mod of Exclusion 4] (Eterna round: R97, puzzle: Brourd's mod of Exclusion 4) please.
39.7

Query apparent KD of MS2 coat protein on MS2 coat protein for GCCGGAUUUGUGAGGAUAUGCCUAUGGAUACAUAGGCAGAAGGCACAUGAGGAUCACCCAUGUACCUCACCGGC [JL-BMX4-4.23 Eli mod] (Eterna round: R97, puzzle: Brourd's mod of Exclusion 4)
21.4

Look up apparent KD of MS2 coat protein with MS2 coat protein for this sequence: AAUACAAGCUAUUGAUCCCACAUGAGGAUCACCCAUGUUCCUGGCCGUGAGGCUAGGUAGACAAUAGCUCGUCUUAU [Sensor-V1 #43] (Eterna round: R97, puzzle: Sensor, turn-off variant 1)
26.4

Given the entry CCAGGCAAUUCCACUUGUAACAUGAGGAUCACCCAUGUGACCUGGUAUCAAGGCAGCUCGUCAUCCCACCAUAUUCA [Eternabot (L1) Solution 23] (Eterna round: R97, puzzle: Sensor, turn-off variant 1) , what apparent KD of MS2 coat protein was observed with MS2 coat protein?
18.4

Record GCCGUAAAUGUGAGGAUAUACCUAUGGAAACAUAGGUAGAAGGCACAUGAGGAUCACCCAUGUUCUUAAUCGGC [Mat - Exclusion 4 - Eli Mod - D2] (Eterna round: R97, puzzle: Brourd's mod of Exclusion 4) : what is its apparent KD of MS2 coat protein with MS2 coat protein?
212

Please state recorded apparent KD of MS2 coat protein (tested on MS2 coat protein) of UUCCUCGUUGUGAGGAUAUCGUCCUAUUUUUGUUACGAGAAGGCACAUGAGGAUCACCCAUGUUACUUGAUGUU [JR_BMOE4_Sub071] (Eterna round: R96, puzzle: Brourd's mod of Exclusion 4)
26

Field: apparent KD of MS2 coat protein (MS2 coat protein). Entry: AUCAGCUCGUCAGGAUAUACAUGCGUGCUUCGGCACGUAUGAUAGAUCACAUGAGGAUCACCCAUGUAGAAGGGACGAGCUGAU [ENG2/4-B3] (Eterna round: R96, puzzle: Exclusion NG 2)
12.7

Field: apparent KD of MS2 coat protein (MS2 coat protein). Entry: CAAUAGAAAGGAUAUACAGUAGGCGUUGUGCUCGAGCACUCACAUGAGGAUCACCCAUGUAGAAGGUUCAGUUA [EX2 C.18] (Eterna round: R97, puzzle: Exclusion 2)
17.7

Return apparent KD of MS2 coat protein measured with MS2 coat protein given this sequence: GCUCGCGGGCAAGGAUAUCCUACGCUGUUCUGGUUCGUGUCUGUUACAUGAGGAUCACCCAUGUGGGAGAAGGUGCACCAGGGC [Design 48] (Eterna round: R96, puzzle: Exclusion NG 2)
14.7

Reported apparent KD of MS2 coat protein for MS2 coat protein, given ACAAGCUUUUUCAUAUCUUACAUGAGGAUCACCCAUGUUUUUGCAAUUAUGUUUGGGCUCUUUUGUGCUCGUCUUAU [JR_STOV1_Sub049] (Eterna round: R97, puzzle: Sensor, turn-off variant 1) ?
15.4

// lookup apparent KD of MS2 coat protein | system=MS2 coat protein | key= GCACGAAGUGUAGGAUAUCUGUGCGAUUAGCUCAGAGAAGGACACAUGAGGAUCACCCAUGUGUUCCACGGAAACGAAACGUGC [Eli exng1 - 053] (Eterna round: R96, puzzle: Exclusion NG 1)
11.9

So what apparent KD of MS2 coat protein did GCGCCAUCGUGAGAUGGCGUUCCGACAUGAGGAUCACCCAUGUAGGAUAUCGAUUGCUUUGCAGUCGAGAAGGGCGUGAUAAGU [JL ENG3 3.73] (Eterna round: R96, puzzle: Exclusion NG 3) get with MS2 coat protein?
22.9

Observed apparent KD of MS2 coat protein on MS2 coat protein for AAUAAAAGCGAGGAUAUCGUAUCGGAAACGAUACGAGAAGGCGUAACAUGAGGAUCACCCAUGUGUCCUCAAUA [Mat - Exclusion 6 - Eli Mod - D8] (Eterna round: R97, puzzle: Exclusion 6) , please.
130

Any idea what apparent KD of MS2 coat protein came out for AUUAGUAAUAAGGAUAUCACUAGCCUCGGCUAGUGAGAAGGUAUUACAUGAGGAUCACCCAUGUGAUUAAUUAA [E6/5-A2] (Eterna round: R97, puzzle: Exclusion 6) on MS2 coat protein?
79.7
